# EXPERIMENTAL_TARGET: UniProt:P39040
# Sequence (P39040 whole entry): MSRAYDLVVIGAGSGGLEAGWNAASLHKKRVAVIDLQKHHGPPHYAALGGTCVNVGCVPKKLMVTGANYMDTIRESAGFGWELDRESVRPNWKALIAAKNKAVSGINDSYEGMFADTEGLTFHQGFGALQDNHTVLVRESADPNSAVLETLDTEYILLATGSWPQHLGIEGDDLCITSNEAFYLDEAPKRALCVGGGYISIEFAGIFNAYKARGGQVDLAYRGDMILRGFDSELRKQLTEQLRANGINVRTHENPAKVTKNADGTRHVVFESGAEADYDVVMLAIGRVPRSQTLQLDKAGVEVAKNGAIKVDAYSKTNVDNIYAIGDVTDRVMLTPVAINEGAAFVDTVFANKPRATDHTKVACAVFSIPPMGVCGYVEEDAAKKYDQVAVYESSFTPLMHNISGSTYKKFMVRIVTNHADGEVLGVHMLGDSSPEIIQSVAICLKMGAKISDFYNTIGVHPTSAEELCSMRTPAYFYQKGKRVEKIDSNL
Each entry below carries its recorded log10(IC50).
Recall that a logarithmic scale is used here: each number is log10 of IC50 in µM.

[[record]]
compound = "COc1cc2c3cc1Oc1c(O)c(OC)cc4c1[C@H](Cc1ccc(cc1)Oc1cc(ccc1O)C[C@H]3NCC2)N(C)CC4 (racemic) [Daphnoline (R,S)]"
data_value = 1.70

[[record]]
compound = "COc1ccc2cc1Oc1ccc(cc1)C[C@H]1c3c(cc(O)c(OC)c3Oc3cc4c(cc3OC)CCN(C)[C@@H]4C2)CCN1C [Gyrocarpine (S,R)]"
data_value = 1.76

[[record]]
compound = "COc1cc2c(cc1O)[C@@H](Cc1ccc(Oc3cc(C[C@H]4NCCc5cc(OC)c(O)cc54)ccc3O)cc1)NCC2 [Lindoldhamine (R,R)]"
data_value = 1.43

[[record]]
compound = "COc1cc2c3cc1Oc1c(O)c(OC)cc4c1[C@H](Cc1ccc(OC)c(c1)-c1cc(ccc1O)C[C@H]3N(C)CC2)N(C)CC4"
data_value = 1.78

[[record]]
compound = "COc1ccc2cc1Oc1ccc(cc1)C[C@H]1c3c(cc4c(c3Oc3cc5c(cc3OC)CCN(C)[C@H]5C2)OCO4)CCN1C"
data_value = 1.18

[[record]]
compound = "COc1ccc2cc1Oc1ccc(cc1)C[C@H]1c3c(cc(OC)c(O)c3Oc3cc4c(cc3OC)CCN(C)[C@@H]4C2)CCN1C"
data_value = 1.74

[[record]]
compound = "COc1cc2c3c(c1OC)Oc1ccc(cc1)C[C@@H]1c4c(cc(OC)c(OC)c4Oc4ccc(cc4)C[C@H]3N(C)CC2)CCN1C [Cycleanine (R,R)]"
data_value = 2.48

[[record]]
compound = "COc1cc2c3cc1Oc1cc(ccc1O)C[C@@H]1c4c(cc(OC)c(O)c4Oc4ccc(cc4)C[C@H]3N(C)CC2)CCN1C [(-)-BEBEERINE]"
data_value = 1.78


Turning to the following compound.
// query Under UniProt:P39040: log10(IC50) value of COc1ccc2cc1Oc1ccc(cc1)C[C@H]1c3cc(c(OC)cc3CCN1C)Oc1c(O)c(OC)cc3c1[C@@H](C2)N(C)CC3 [Limacine (R,R)] ?
// result 1.95
